pIC50: −log10 of the molar value.
This section lists pIC50 readings for GST-JAK3 enzyme (Homo sapiens (Human), UniProt P52333).
property.label: pIC50

- molecule: "CC[C@@H]1CN(C(=O)C(C)(C)O)CC[C@H]1Nc1c(C(N)=O)cnn2cc(-c3ccnc(C)c3)cc12 [Example 131]"
  pIC50: 8.15
- molecule: "CC[C@@H]1CN(C(=O)[C@@H](O)CC)CC[C@H]1Nc1c(C(N)=O)cnn2cc(-c3cnn(C)c3)cc12 [Example 127]"
  pIC50: 8.25

A: C[C@@H]1[C@H]2CN(S(C)(=O)=O)C[C@H]2C[C@H]1Nc1c(C(N)=O)cnn2cc(-c3nnn(C)n3)cc12 [Example 67]
B: CC[C@@H]1CN(C(=O)[C@H](C)O)CC[C@H]1Nc1c(C(N)=O)cnn2cc(-c3ccnc(OC)c3)cc12 [Example 134]
Could you tell me which of A and B has the lower pIC50 reading? Lab log: write the label of the selected item as the result.
B

a: CNC(=O)c1cccc(-c2cc3c(N[C@@H]4CN(C(=O)C5(C#N)CC5)C[C@@H]4OC)c(C(N)=O)cnn3c2)c1 [Example 303]
b: NC(=O)c1cnn2cc(-c3ccccc3F)cc2c1NC1CCOCC1 [Example 34]
c: CCOC(=O)N1CCC[C@@H](Nc2c(C(N)=O)cnn3cc(-c4ccccc4)cc23)C1 [Example 51]
Arrange these molecules by their pIC50, starting with the largest number. Reply with the item labels sorted in the order that was asked for.
a, b, c
(a: 8.82, b: 7.40, c: 6.55)

====

# target.or.system: UniProt P23458
# Sequence (P23458 whole entry): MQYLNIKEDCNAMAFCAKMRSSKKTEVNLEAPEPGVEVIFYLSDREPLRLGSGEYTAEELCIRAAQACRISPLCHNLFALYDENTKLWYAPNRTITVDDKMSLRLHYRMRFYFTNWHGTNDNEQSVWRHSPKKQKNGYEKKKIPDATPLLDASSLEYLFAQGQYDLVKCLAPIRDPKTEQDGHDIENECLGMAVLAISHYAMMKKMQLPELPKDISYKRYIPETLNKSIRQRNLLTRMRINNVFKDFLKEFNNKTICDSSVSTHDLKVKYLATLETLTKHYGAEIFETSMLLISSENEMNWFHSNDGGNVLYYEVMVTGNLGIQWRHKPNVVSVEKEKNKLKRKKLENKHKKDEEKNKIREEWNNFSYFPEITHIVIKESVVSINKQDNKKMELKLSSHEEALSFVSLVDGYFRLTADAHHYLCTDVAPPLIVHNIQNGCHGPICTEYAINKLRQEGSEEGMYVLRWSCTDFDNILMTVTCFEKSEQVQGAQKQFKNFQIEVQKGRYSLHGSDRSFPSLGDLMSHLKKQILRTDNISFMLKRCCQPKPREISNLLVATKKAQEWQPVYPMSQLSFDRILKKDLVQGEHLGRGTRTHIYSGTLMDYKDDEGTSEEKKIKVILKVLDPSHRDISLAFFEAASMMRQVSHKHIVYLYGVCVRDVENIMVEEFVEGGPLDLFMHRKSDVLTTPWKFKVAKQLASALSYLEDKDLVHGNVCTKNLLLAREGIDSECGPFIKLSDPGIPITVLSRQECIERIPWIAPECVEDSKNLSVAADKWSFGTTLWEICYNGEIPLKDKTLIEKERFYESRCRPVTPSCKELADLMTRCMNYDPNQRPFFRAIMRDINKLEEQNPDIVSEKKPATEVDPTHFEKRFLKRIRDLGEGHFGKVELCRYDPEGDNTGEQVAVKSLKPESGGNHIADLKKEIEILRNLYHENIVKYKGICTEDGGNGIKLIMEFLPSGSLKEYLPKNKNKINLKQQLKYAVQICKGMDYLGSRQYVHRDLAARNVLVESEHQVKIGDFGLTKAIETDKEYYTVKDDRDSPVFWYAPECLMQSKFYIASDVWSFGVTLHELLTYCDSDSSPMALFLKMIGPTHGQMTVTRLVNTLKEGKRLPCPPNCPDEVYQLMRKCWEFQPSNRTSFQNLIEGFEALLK
# assay.details: JAK1 Kinase Assay Protocol
# Assay type: biochemical
# measurement.parameters: JAK1 kinase inhibition; read-out: LLE_JAK1 (IC50)
pIC50: −log10 of the molar value.
property.label: pIC50

Here is how some molecules turned out for pIC50.
- smiles.code: "CO[C@H]1CN(C(=O)C2(C#N)CC2)C[C@H]1Nc1c(C(N)=O)cnn2cc(-c3ccc(F)cc3)cc12"
  target.or.system: "UniProt P23458"
  experimental.result: 8.96
- smiles.code: "CC(=O)N1CCN(c2cc3c(N[C@@H]4C[C@@H]5CN(S(C)(=O)=O)C[C@@H]5[C@H]4C)c(C(N)=O)cnn3c2)C1=O"
  target.or.system: "UniProt P23458"
  experimental.result: 9.10
- smiles.code: "C[C@@H]1[C@H]2CN(C(=O)CO)C[C@H]2C[C@H]1Nc1c(C(N)=O)cnn2cc(-c3ccc(C(N)=O)cc3)cc12"
  target.or.system: "UniProt P23458"
  experimental.result: 9.52
- smiles.code: "C[C@@H]1[C@H]2CN(C(=O)C(C)(C)O)C[C@H]2C[C@H]1Nc1c(C(N)=O)cnn2cc(-c3cnn(C)c3)cc12"
  target.or.system: "UniProt P23458"
  experimental.result: 8.85
- smiles.code: "CC1(C)CN(c2ccc(C#N)cn2)CC[C@H]1Nc1c(C(N)=O)cnn2cc(N3CC[C@@H](O)C3=O)cc12"
  target.or.system: "UniProt P23458"
  experimental.result: 9.15

P: C[C@@H]1[C@H]2CN(C(=O)CO)C[C@H]2C[C@H]1Nc1c(C(N)=O)cnn2cc(-c3ccc(C(=O)NC4CC4)cc3)cc12
Q: CC[C@H]1CN(C(=O)C2(C#N)CC2)C[C@H]1Nc1c(C(N)=O)cnn2cc(-c3ccc(C)nc3)cc12
Return label of the item with the larger pIC50. Candidates: P , Q . Lab log: write the label of the selected item as the result.
P

====

This section lists IC50 readings for GST-JAK3 enzyme (Homo sapiens (Human), UniProt P52333).
Structures can show the parent of a compound that is named as a salt.
property.label: IC50 (nM)

Here is how some compounds turned out for IC50.
- compound: "CC[C@H]1CN(c2ccc(C#N)cn2)C[C@H]1Nc1c(C(N)=O)cnn2cc(-c3ccc(=O)n(C)c3)cc12"
  property.label: "IC50"
  experimental.result: 0.4
- compound: "CCNC(=O)c1ccc(-c2cc3c(N[C@@H]4CN(C(=O)C(C)(C)C#N)C[C@@H]4CC)c(C(N)=O)cnn3c2)cn1"
  property.label: "IC50"
  experimental.result: 8.6
- compound: "CC[C@H]1CN(c2ncc(C#N)s2)C[C@H]1Nc1c(C(N)=O)cnn2cc(-c3cnn(C)c3)cc12"
  property.label: "IC50"
  experimental.result: 0.3
- compound: "NC(=O)c1cnn2cc(-c3cncc(F)c3)cc2c1NC1CCOCC1"
  property.label: "IC50"
  experimental.result: 70
- compound: "C[C@@H]1[C@H]2CN(C(=O)C(C)(C)O)C[C@H]2C[C@H]1Nc1c(C(N)=O)cnn2cc(-c3cnc(N)nc3)cc12"
  property.label: "IC50"
  experimental.result: 1

a: CS(=O)(=O)N1CCC[C@H](Nc2c(C(N)=O)cnn3cc(-c4ccccc4)cc23)C1
b: COc1ncc(-c2cc3c(N[C@@H]4CN(C(=O)C5(C#N)CC5)C[C@@H]4CF)c(C(N)=O)cnn3c2)cn1
c: NC(=O)c1cnn2cc(-c3cnc4ccccc4c3)cc2c1NC1CCOCC1
d: COc1ccc(-c2cc3c(N[C@@H]4CCN(C(=O)[C@@H](C)O)CC4(C)C)c(C(N)=O)cnn3c2)cn1
e: CCCC(=O)O[C@H]1CCN(c2cc3c(N[C@@H]4CCN(c5ncc(C#N)cn5)CC4(C)C)c(C(N)=O)cnn3c2)C1=O
Ascending by IC50, please. Reply with the item labels sorted in the order that was asked for.
e, d, b, a, c
(e: 1.4 nM, d: 3.3 nM, b: 8.9 nM, a: 20.9 nM, c: 40 nM)

A: CC[C@H]1CN(C(=O)C2(C#N)CCC2)C[C@H]1Nc1c(C(N)=O)cnn2cc(-c3ccnc(Cl)c3)cc12
B: NC(=O)c1cnn2cc(-c3ccccc3)cc2c1N[C@@H]1CCCNC1 [Example 48, HCl]
C: NC(=O)c1cnn2cc(-c3cncnc3)cc2c1NC1CCOCC1
D: CO[C@H]1CN(C(=O)C2(C#N)CC2)C[C@H]1Nc1c(C(N)=O)cnn2cc(-c3ccc(C#N)cc3)cc12
Arrange these compounds by their IC50, starting with the largest number. Reply with the item labels sorted in the order that was asked for.
C, B, D, A
(C: 148 nM, B: 57.1 nM, D: 6.6 nM, A: 0.3 nM)

P: CC[C@H]1CN(C(=O)C2(C#N)CC2)C[C@H]1Nc1c(C(N)=O)cnn2cc(-c3cc(C)no3)cc12
Q: NC(=O)c1cnn2cc(-c3ccc(F)cc3)cc2c1NC1CCOCC1
Return label of the item with the larger IC50. Candidates: P , Q . Lab log: write the label of the selected item as the result.
Q
